- protocol_description: Test for solubility according to pH
- Assay type: physicochemical
- reported_conditions: 37 °C, pH 6.8, aqueous buffer, thermodynamic from solid, second solution pH about 6.8, 2 mg/mL, 37° C. 2 hours; read-out: Solubility (μg/mL) pH 6.8
Assignment: determine reported solubility at 2 h for the given compounds.
Report the figure in µg/mL without appending any unit label.

Give the measured solubility at 2 h of O=S(=O)(c1cc(Br)c(O)c(Br)c1)N1CCOc2ccncc21 [Compound 35-2] .
234

Could you tell me which solubility at 2 h is on file for O=C(c1ccc(O)c(C(F)(F)F)c1)N1CCOc2ccncc21 [Compound 12] ?
132

Could you tell me which solubility at 2 h is on file for O=C(c1cc(O)nc(O)n1)N1CCOc2ccncc21 [Compound 60] ?
600

I'd like to know its solubility at 2 h. The compound in question is O=C(Cc1cc(Br)c(O)c(Br)c1)N1CCOc2ccncc21 [Compound 42]
143

Need solubility at 2 h of O=C(c1cc(Cl)nc(Cl)c1)N1CCOc2ccncc21 [Compound 31] , thanks.
199

Dear colleague, I am looking for the recorded solubility at 2 h of the following compound: O=C(c1cc(F)c(O)c(F)c1)N1CCOc2ccncc21 [Compound 29]
382

---

Consider the following molecules; for each one, report its solubility at 2 h.
- protocol_description: Test for solubility according to pH
- Assay type: physicochemical
- reported_conditions: 37 °C, pH 1.2, simulated gastric fluid, thermodynamic from solid, first solution pH about 1.2, 2 mg/mL, 37° C. 2 hours; read-out: Solubility (μg/mL) pH 1.2
# output: bare number, implied unit µg/mL

Which value of solubility at 2 h has been reported for O=C(c1cc(F)c(O)c(F)c1)N1CCOc2ccncc21 in the records?
1090

Which solubility at 2 h value belongs to Br.O=C(c1cc(Cl)c(O)c([N+](=O)[O-])c1)N1CCOc2cnccc21 ?
1610

Quick one: solubility at 2 h of O=C(c1cnc(O)nc1O)N1CCOc2ccncc21 ?
2240

solubility at 2 h lookup needed for CC1(C)CN(C(=O)c2cc(Br)c(O)c(Br)c2)c2cnccc2O1 , thanks.
986

For the molecule shown here, O=S(=O)(c1cc(Br)c(O)c(Br)c1)N1CCOc2ccncc21 , give the reported solubility at 2 h.
1460

// returns reported solubility at 2 h for input O=C(c1ccc(O)nc1)N1CCOc2ccncc21
1960

Fill blank: measured solubility at 2 h of the molecule COc1cc(C(=O)N2CCOc3ccncc32)on1 is ____.
1260

Field request: solubility at 2 h | item: O=C(c1cc(O)nc(O)n1)N1CCOc2ccncc21
2130

---

- target_system: hURAT1 (Homo sapiens)
- Construct: expressed in transfected cells; host or cells: HEK293 (human kidney cell line), transient transfection with Fugene6
- Sequence (Q96S37 whole entry): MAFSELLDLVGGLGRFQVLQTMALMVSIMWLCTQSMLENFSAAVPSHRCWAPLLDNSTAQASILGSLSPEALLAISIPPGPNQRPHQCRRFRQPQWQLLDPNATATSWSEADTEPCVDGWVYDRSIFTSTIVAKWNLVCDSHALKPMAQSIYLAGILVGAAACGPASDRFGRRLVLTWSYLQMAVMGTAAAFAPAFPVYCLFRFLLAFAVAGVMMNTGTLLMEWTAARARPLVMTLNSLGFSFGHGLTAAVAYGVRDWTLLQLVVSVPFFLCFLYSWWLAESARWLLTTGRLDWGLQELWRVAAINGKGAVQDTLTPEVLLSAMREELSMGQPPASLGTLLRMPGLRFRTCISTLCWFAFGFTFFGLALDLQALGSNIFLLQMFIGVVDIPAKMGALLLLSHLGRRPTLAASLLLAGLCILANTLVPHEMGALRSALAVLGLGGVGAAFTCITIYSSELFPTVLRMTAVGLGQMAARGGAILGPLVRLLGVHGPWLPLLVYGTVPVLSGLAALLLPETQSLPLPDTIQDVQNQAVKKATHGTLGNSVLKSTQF
- protocol_description: Test for inhibiting urate reuptake activity via hURAT1 (uric acid transport assay in hURAT1-overexpressed HEK293 cell line)
- Assay type: cell-based
- reported_conditions: hURAT1-overexpressed HEK293 cells, [14C]-uric acid uptake, 100 μM uric acid; read-out: IC50 (μM) hURAT, level of uric acid reuptake inhibition
Threshold 0.09 µM: IC50 strictly smaller gives rule met, otherwise rule not met.

Is it true that IC50 reported for O=C(c1cc(Cl)c(O)c(Cl)c1)N1CCOc2cnccc21 [Compound 15] is less than 0.09 µM?
rule not met

Is IC50 strictly under 0.09 µM for the entry COC(=O)COc1c(Br)cc(C(=O)N2CCOc3ccncc32)cc1Br [Compound 24] ?
rule not met

Please indicate whether the reported IC50 of O=C(c1cc(Cl)c(O)c(Cl)c1)N1CCOc2cnccc21 [Compound 41] is strictly below 0.09 µM.
rule not met

Criterion: IC50 strictly below 0.09 µM. Is it met by O=C(c1cc(Br)c(O)c(Br)c1)N1CCOc2ncc(-c3cccc(C(F)(F)F)c3)cc21 [Compound 63] ?
rule met

IC50 under 0.09 µM? Item: O=C(c1cc(Br)c(O)c(Br)c1)N1CCOc2ncc(-c3ccccc3C(F)(F)F)cc21 [Compound 46]
rule met

Determine if O=S(=O)(c1cc(Cl)c(O)c(Cl)c1)N1CCOc2ccncc21 [Compound 21] shows IC50 strictly lower than 0.09 µM.
rule not met

Take the molecule O=C(c1cc(Br)c(O)c(Br)c1)N1CCOc2cnccc21 [Compound 6] and say whether its IC50 is less than 0.09 µM.
rule met

Strictly below 0.09 µM: is that where IC50 of COc1c(Br)cc(C(=O)N2CCOc3nc(C)ccc32)cc1Br [Compound 58] sits?
rule not met

Given COc1c(Br)cc(C(=O)N2CCOc3ncc(-c4cccc(N(C)C)c4)cc32)cc1Br [Compound 48] , is recorded IC50 strictly lower than 0.09 µM?
rule not met

Say whether its IC50 is strictly beneath 0.09 µM. Entry: O=C(c1cc(Br)c(O)c(Br)c1)N1CCOc2ncc(-c3ccc(OC(F)(F)F)cc3)cc21 [Compound 66]
rule met

# check: IC50 < 0.09 µM for O=C(c1cc(Br)c(O)c(Br)c1)N1CCOc2ncccc21 [Compound 1]
rule met

Quick check: IC50 of O=C(Cc1cc(Br)c(O)c(Br)c1)N1CCOc2ccncc21 [Compound 42] under 0.09 µM?
rule not met

State whether 0.09 µM exceeds IC50 recorded for O=C(c1cc(Br)c(O)c(Br)c1)N1CCOc2ncc(-c3cccc([N+](=O)[O-])c3)cc21 [Compound 50] .
rule met

Quick check: does O=C(c1ccc(O)c(Br)c1)N1CCOc2cnccc21 [Compound 16] have IC50 under 0.09 µM?
rule not met

Please state whether IC50 is below 0.09 µM for COc1c(Br)cc(C(=O)N2CCOc3ncc(C#N)cc32)cc1Br [Compound 47-1]
rule not met

Lab note: confirm whether the reported IC50 for this molecule is below 0.09 µM, equality not counting. molecule: O=S(=O)(c1cc(Br)c(O)c(Br)c1)N1CCOc2ccncc21 [Compound 35-2]
rule not met

In the record for O=C(c1ccc(O)c(C(F)(F)F)c1)N1CCOc2cnccc21 [Compound 19] , is IC50 less than 0.09 µM?
rule not met

Field: below-cutoff. Rule: recorded IC50 strictly less than 0.09 µM. Subject: Cc1ccc2c(n1)OCCN2C(=O)c1cc(Br)c(O)c(Br)c1 [Compound 7]
rule not met

FYI, the data here is from patent US8394792B2.
